Recorded below: AC50, system Histamine H1 receptor (Homo sapiens, UniProt P35367). Also: assay procedure not described here.

Example results:
compound: CO/N=C(\C(=O)N[C@@H]1C(=O)N2C(C(=O)[O-])=C(C[n+]3ccc(N)n3CCO)CS[C@H]12)c1csc(N)n1
AC50: > 30 µM

compound: OCCOCCN1CCN(C(c2ccccc2)c2ccc(Cl)cc2)CC1 (configuration not stated) [HYDROXYZINE]
AC50: 0.039 µM

compound: C[C@]12CCC(=O)C=C1C=C[C@@H]1[C@@H]2CC[C@@]2(C)[C@H]1CC[C@@]21CCC(=O)O1
AC50: > 30 µM

compound: CN(C)CCOC(c1ccc(Cl)cc1)c1ccccn1 (configuration not stated)
AC50: 0.11 µM

compound: COc1ccc(-c2cc(=S)ss2)cc1
AC50: > 30 µM

compound: C[C@]12C=CC(=O)C=C1C(Cl)=C[C@@H]1[C@@H]2[C@@H](O)C[C@@]2(C)[C@H]1CC[C@]2(O)C(=O)CO
AC50: > 30 µM

We next turn to a different compound, shown below.
Response field AC50 (Histamine H1 receptor (Homo sapiens, UniProt P35367)) for item Cn1cnc2c(F)c(Nc3ccc(Br)cc3F)c(C(=O)NOCCO)cc21 : > 30 µM

---

# target-or-system: Sodium-dependent serotonin transporter (Homo sapiens); also: assay procedure not described here
# Sequence (P31645 whole entry): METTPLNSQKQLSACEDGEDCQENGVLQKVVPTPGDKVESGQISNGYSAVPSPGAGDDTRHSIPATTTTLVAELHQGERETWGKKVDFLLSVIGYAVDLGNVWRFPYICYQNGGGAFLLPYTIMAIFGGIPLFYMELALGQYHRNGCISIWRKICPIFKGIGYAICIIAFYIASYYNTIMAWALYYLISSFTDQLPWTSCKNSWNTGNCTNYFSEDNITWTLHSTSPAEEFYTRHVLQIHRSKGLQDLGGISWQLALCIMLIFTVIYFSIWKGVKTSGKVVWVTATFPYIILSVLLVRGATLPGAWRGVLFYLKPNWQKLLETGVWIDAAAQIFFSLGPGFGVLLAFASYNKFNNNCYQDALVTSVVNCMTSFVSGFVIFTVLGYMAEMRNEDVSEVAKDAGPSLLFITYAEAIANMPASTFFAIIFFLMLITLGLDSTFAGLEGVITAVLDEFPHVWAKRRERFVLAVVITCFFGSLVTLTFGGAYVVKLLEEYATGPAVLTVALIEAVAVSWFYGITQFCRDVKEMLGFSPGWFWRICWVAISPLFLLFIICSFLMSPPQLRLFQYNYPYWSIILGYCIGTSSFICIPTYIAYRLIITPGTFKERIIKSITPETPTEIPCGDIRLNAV
This section presents molecules with their documented AC50 values.

// below: answered molecules
molecule: CC(C)(Oc1ccc(Cl)cc1)C(=O)OCCOC(=O)c1cccnc1 [ETOFIBRATE]
AC50: > 30 µM

molecule: CC1=C(C(=O)O)N2C(=O)[C@@H](NC(=O)[C@H](N)C3=CCC=CC3)[C@H]2SC1
AC50: > 30 µM

molecule: CCC(NC(C)C)C(O)c1ccc(O)c(O)c1 (stereo not drawn)
AC50: > 30 µM

molecule: CO/N=C(\C(=O)N[C@@H]1C(=O)N2C(C(=O)[O-])=C(C[n+]3ccc(N)n3CCO)CS[C@H]12)c1csc(N)n1
AC50: > 30 µM

molecule: CN(C)CCOCC(=O)NC12CC3CC(CC(C3)C1)C2
AC50: > 30 µM

The reported AC50 value, Sodium-dependent serotonin transporter (Homo sapiens), for CNC1(C)C2CCC(C2)C1(C)C (stereo not drawn) reads > 10 µM

---

Listed next: entries and their corresponding AC50.
# target-or-system: Muscarinic acetylcholine receptor M1 (Homo sapiens); also: assay procedure not described here
# Sequence (P11229 whole entry): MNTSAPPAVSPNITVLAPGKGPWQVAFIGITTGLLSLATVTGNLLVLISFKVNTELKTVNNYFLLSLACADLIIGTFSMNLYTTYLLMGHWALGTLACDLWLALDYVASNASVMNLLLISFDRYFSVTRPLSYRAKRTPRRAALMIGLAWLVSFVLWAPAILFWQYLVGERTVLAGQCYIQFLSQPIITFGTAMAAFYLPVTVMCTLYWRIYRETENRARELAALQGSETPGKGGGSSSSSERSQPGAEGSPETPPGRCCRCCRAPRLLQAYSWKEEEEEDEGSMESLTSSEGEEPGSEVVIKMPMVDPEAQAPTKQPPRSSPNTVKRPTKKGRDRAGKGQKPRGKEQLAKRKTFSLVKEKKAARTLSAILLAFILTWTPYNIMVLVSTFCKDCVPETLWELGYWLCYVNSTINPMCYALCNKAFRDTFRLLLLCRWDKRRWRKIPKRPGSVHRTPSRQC
# Type: functional
Where a SMILES comes first, the peptide text is derived from it.

molecule: CCN(CC)C(C)C(=O)c1ccccc1 (stereo not drawn)
target-or-system: Muscarinic acetylcholine receptor M1 (Homo sapiens); also: assay procedure not described here
AC50: > 10 µM

// AC50 lookup, molecule = C[C@H](N)C(=O)N[C@@H](CCC(N)=O)C(=O)O [ALANYL GLUTAMINE] (H-Ala-Gln-OH) , result: > 30 µM

Noted for CC(C)C[C@H](NC(=O)[C@H](Cc1ccccc1)NC(=O)c1cnccn1)B(O)O : its AC50 reads > 30 µM

Entry O=C(O)CCCC[C@@H]1SC[C@@H]2NC(=O)N[C@@H]21 ; AC50 = > 10 µM

AC50 for CCn1c(=O)c2c(nc(/C=C/c3ccc(OC)c(OC)c3)n2C)n(CC)c1=O is > 30 µM

Given item CC(C)(C)NCC(O)COc1ccccc1C#N (stereo not drawn) , the value recorded as its AC50 is > 30 µM

Note to self: AC50 recorded for CCOC(=O)O[C@]1(C(=O)COC(=O)CC)CC[C@H]2[C@@H]3CCC4=CC(=O)C=C[C@]4(C)[C@H]3[C@@H](O)C[C@@]21C [PREDNICARBATE] was > 10 µM

Just so you know, measured AC50 for CN1C(=O)CN=C(c2ccccc2F)c2cc([N+](=O)[O-])ccc21 came out at > 10 µM

Data origin: ChEMBL document CHEMBL5291721
